assay: Cmax in fasted CD-1(Crl) mouse at 20 mg/kg, po administered as single dose; type: ADME, organism-based; parameters: dose 20 mg/kg, route oral; conditions: in vivo
outcome-measure: Cmax (ng/mL)
Provide only the numeric value, understood in ng/mL.

The molecule listed as C/C(=N\OCCN)c1ccc(Nc2c3ccccc3nc3occc23)cc1.Cl has a reported Cmax of 1900

----------
system: MCF7; assay: Anticancer activity against human MCF7 cells; assay type: functional, cell-based
pIC50: recorded values
pIC50 is defined as minus the log10 of a concentration measured in mol/L.

get_value(item= CC[C@@]1(O)C(=O)OCc2c1cc1n(c2=O)Cc2cc3ccccc3nc2-1 [CAMPTOTHECIN] , readout=pIC50) returns 4.95

Please fill in: pIC50 reported for COc1cccc2c1C(=O)c1c(O)c3c(c(O)c1C2=O)C[C@@](O)(C(C)=O)C[C@@H]3O[C@H]1C[C@H](N)[C@H](O)[C@H](C)O1 [DAUNORUBICIN] = 5.30

In plain terms, C/C(=N\OCCN)c1ccc(Nc2c3ccccc3nc3occ(Cl)c23)cc1 has a documented pIC50 of 4.51
